Where do these numbers come from? They come from PubChem BioAssay AID624297.

- Assay Overview: A quantitative high throughput screen for small molecules that induce DNA re-replication in SW480 colon adenocarcinoma cells. Also: nearly all actives have a fitted effect of over 55% in size.
- Conditions: Hoechst DNA content imaging, 48 h; series mostly up to 46.1 µM
Hit rate of the full screen: of about 340,000 compounds, about 6,200 (1.8%) were called active. Inconclusive results (about 10%) are left out. Calls follow the shape of the dose curve; as a rule, active = well fitted activation curve with a large enough effect; inconclusive = small, poorly fitted or top-dose-only effect; inactive = no such curve, though single readings can be large or run the other way. This excerpt belongs to a sample that is enriched for actives.
Classes used: label 1 for active, label 0 for inactive

>>> class_label("Cc1cc(C)nc(NC(=O)Nc2ccccc2C(F)(F)F)n1")
"label 1"
>>> class_label("COc1cccc(C(=O)NC(=O)Nc2nc(C)cc(C(F)(F)F)n2)c1")
"label 0"
>>> class_label("Cc1ccc(-c2cc(=O)c3ccc(Cl)cc3[nH]2)cc1")
"label 0"
>>> class_label("O=C(CCCCCCCC(=O)N1CCCCC1)N1CCCCC1")
"label 0"
>>> class_label("CCN(c1ccccc1)S(=O)(=O)c1ccc(C(=O)Nc2ccccc2OC)cc1")
"label 0"
>>> class_label("CN1c2ccc(C=O)c3c(C=O)ccc(c23)N(C)C1(C)C")
"label 1"
>>> class_label("O=C(c1cccs1)N1CCCC(c2nc(-c3ccc(F)cc3)no2)C1 (stereo not drawn)")
"label 0"
>>> class_label("O=C1c2ccccc2C(=O)C1C(=O)C1CC1")
"label 0"
>>> class_label("Cc1ccc(NC(=O)c2cc3ccccc3o2)cc1")
"label 0"
>>> class_label("Oc1ccc(Cl)c2c1CCC2")
"label 0"
>>> class_label("O=C(N/N=C/c1cccc(O)c1)c1cc2c(ccc3ccccc32)o1")
"label 0"
>>> class_label("Cc1ccc(S(=O)(=O)N2CCOCC2)cc1NC(=O)COC(=O)c1cnccn1")
"label 0"
>>> class_label("Cc1ccc(-c2cc(=O)c3ccc(F)cc3[nH]2)cc1")
"label 0"
>>> class_label("CSc1ncccc1C(=O)Nc1cccc(S(=O)(=O)N2CCOCC2)c1")
"label 0"
>>> class_label("O=C(OCCOc1ccccc1F)c1cc(S(=O)(=O)N2CCOCC2)ccc1F")
"label 0"
>>> class_label("CCN1CCN(C(=O)CSc2ccc(C)cc2)CC1")
"label 0"
>>> class_label("COc1ccc(/C=C(\\C#N)c2c[nH]c3ccccc23)cc1")
"label 1"
>>> class_label("N#Cc1c(-c2ccc(F)cc2)cc(C2CC2)nc1SCC(=O)c1cccs1")
"label 1"
>>> class_label("CC(C)N(C(=O)[C@H]1C[C@H](CC(=O)NCCC2=CCCCC2)C(=O)N2CCc3c([nH]c4cc(CCC(=O)N(C)C)ccc34)[C@]12C)C(C)C")
"label 0"
>>> class_label("Cc1cc(Cl)nc(NC(=O)Nc2cccc(Cl)c2)n1")
"label 0"
>>> class_label("CC(C)(C)OC(=O)C1=C(CO)CS[C@@H]2[C@H](NC(=O)Cc3ccccc3)C(=O)N12")
"label 0"
>>> class_label("COc1cc(/C=C(\\C#N)c2nc3ccccc3[nH]2)ccc1O")
"label 0"
>>> class_label("Cc1c(/C=N\\NC(=O)c2cc3ccccc3o2)c2ccccc2n1C")
"label 1"
